# Assay comment: Tissue distribution
# Test context: both, SD, rat, kidney, iv, 6 μmol/kg
# Procedure: Male and female SD rats (200–220 g) received intravenous injections of CTX or CTX-DTPA (6 μmol/kg). CTX was dissolved in 2.5% Tween 80/2.5% EtOH/saline, while CTX-DTPA used saline alone. Blood samples were collected at 5 min to 24 h post-dose. […] Plasma and tissue samples were processed by liquid-liquid extraction with n-butanol and analyzed via LC-MS/MS (Agilent Poroshell 120 EC-C18 column; 0.05% formic acid/acetonitrile gradient). […]
Readout name: concentration at 4 h (ng/g)
Hi! Could you send only the number? It should be in ng/g, unit omitted.

Recorded concentration at 4 h for CO[C@H]1C(=O)[C@]2(C)[C@@H](OC)C[C@H]3OC[C@@]3(OC(C)=O)[C@H]2[C@H](OC(=O)c2ccccc2)[C@]2(O)C[C@H](OC(=O)[C@H](O)[C@@H](NC(=O)OC(C)(C)C)c3ccccc3)C(C)=C1C2(C)C , please?
308
